Values from PubChem BioAssay AID1963983

- Test system: 186277-243-T-J2-PDC multi-cell spheroid viability
- experiment: Anticancer human tumor 186277-243-T-J2-PDC patient-derived colon adenocarcinoma cell line growth inhibition [PI3K]
- applied.conditions: second compound 0.0316 µM; first compound 0.316 µM; hits give low values
Measured viability, T/C of individual entries
Return type: number; implicit unit %.

Input line: For the compound shown here, CNC(=O)c1ccc(N2C(=S)N(c3ccc(C#N)c(C(F)(F)F)c3)C(=O)C2(C)C)cc1F + CC(Nc1ccc2c(c1)OCCn1cc(N3C(=O)OCC3C(F)F)nc1-2)C(N)=O , give the reported viability, T/C.
Output line: 94.1

Input line: For the compound shown here, CCN1CCN(Cc2ccc(Nc3ncc(F)c(-c4cc(F)c5nc(C)n(C(C)C)c5c4)n3)nc2)CC1 + Cc1nc(NC(=O)N2CCCC2C(N)=O)sc1-c1ccnc(C(C)(C)C(F)(F)F)c1 , give the reported viability, T/C.
Output line: 147

Continuing:
Input line: For the compound shown here, CCN1CCN(Cc2ccc(Nc3ncc(F)c(-c4cc(F)c5nc(C)n(C(C)C)c5c4)n3)nc2)CC1 + CC(Nc1ccc2c(c1)OCCn1cc(N3C(=O)OCC3C(F)F)nc1-2)C(N)=O , give the reported viability, T/C.
Output line: 124

Input line: For the compound shown here, CCCS(=O)(=O)Nc1ccc(F)c(C(=O)c2c[nH]c3ncc(-c4ccc(Cl)cc4)cc23)c1F + Cc1nc(NC(=O)N2CCCC2C(N)=O)sc1-c1ccnc(C(C)(C)C(F)(F)F)c1 , give the reported viability, T/C.
Output line: 88.5

Input line: For the compound shown here, C#Cc1c(F)ccc2cc(O)cc(-c3ncc4c(N5CC6CCC(C5)N6)nc(OCC56CCCN5CC(F)C6)nc4c3F)c12 (stereo unspecified) + COc1c(OCCCN2CCOCC2)ccc2c3n(c(=NC(=O)c4cnc(N)nc4)nc12)CCN3 , give the reported viability, T/C.
Output line: 10.6

Input line: For the compound shown here, C[C@@H](NC(=O)c1ncnc(N)c1Cl)c1ncc(C(=O)Nc2cc(C(F)(F)F)c(Cl)cn2)s1 + CC(Nc1ncnc2nc[nH]c12)c1cc2cccc(Cl)c2c(=O)n1-c1ccccc1 , give the reported viability, T/C.
Output line: 93.7

Input line: For the compound shown here, CC(Cn1ccc(-c2ccc(C#N)c(Cl)c2)n1)NC(=O)c1cc(C(C)O)[nH]n1 (stereo unspecified) + COc1c(OCCCN2CCOCC2)ccc2c3n(c(=NC(=O)c4cnc(N)nc4)nc12)CCN3 , give the reported viability, T/C.
Output line: 69.2

Input line: For the compound shown here, Cn1ncc(Cl)c1-c1cc(C(=O)NC(CN)Cc2cccc(F)c2)sc1Cl (stereo unspecified) + Cc1nc(NC(=O)N2CCCC2C(N)=O)sc1-c1ccnc(C(C)(C)C(F)(F)F)c1 , give the reported viability, T/C.
Output line: 56.8

* * *

- Test system: 186277-243-T-J2-PDC multi-cell spheroid viability
- experiment: Anticancer human tumor 186277-243-T-J2-PDC cell line growth inhibition [PI3K]; active = viability on the fitted dose curve at most 10% of control; inactive = the rest;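 further: spheroids exposed to compounds for seven days before viability reading; 100% = DMSO vehicle control viability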
- applied.conditions: second compound 0.316 µM; first compound 10 µM
Hello, when you answer, please use one of the following outcomes: 1 (active), 0 (inactive)

Here's what some known entries look like.
Input line: Can you look up the reported call for Cn1nccc1Nc1nccc(-c2ccn(C(CO)c3ccc(Cl)c(F)c3)c(=O)c2)n1 (stereo not given) + Cc1nc(NC(=O)N2CCCC2C(N)=O)sc1-c1ccnc(C(C)(C)C(F)(F)F)c1 for me?
Output line: 0

Input line: Can you look up the reported call for CNC(=O)c1ccc(N2C(=S)N(c3ccc(C#N)c(C(F)(F)F)c3)C(=O)C2(C)C)cc1F + Cc1nc(NC(=O)N2CCCC2C(N)=O)sc1-c1ccnc(C(C)(C)C(F)(F)F)c1 for me?
Output line: 0

Input line: Can you look up the reported call for C#Cc1c(F)ccc2cc(O)cc(-c3ncc4c(N5CC6CCC(C5)N6)nc(OCC56CCCN5CC(F)C6)nc4c3F)c12 (stereo not given) + Cc1nc(NC(=O)N2CCCC2C(N)=O)sc1-c1ccnc(C(C)(C)C(F)(F)F)c1 for me?
Output line: 1

Input line: Can you look up the reported call for C=CC(=O)N1CCN(c2nc(=O)n(-c3c(C)ccnc3C(C)C)c3nc(-c4c(O)cccc4F)c(F)cc23)C(C)C1 (stereo not given) + CC(Nc1ccc2c(c1)OCCn1cc(N3C(=O)OCC3C(F)F)nc1-2)C(N)=O for me?
Output line: 0

Input line: Can you look up the reported call for Cn1nccc1Nc1nccc(-c2ccn(C(CO)c3ccc(Cl)c(F)c3)c(=O)c2)n1 (stereo not given) + COc1c(OCCCN2CCOCC2)ccc2c3n(c(=NC(=O)c4cnc(N)nc4)nc12)CCN3 for me?
Output line: 1

Input line: Can you look up the reported call for CC(C)NCC(C(=O)N1CCN(c2ncnc3c2C(C)CC3O)CC1)c1ccc(Cl)cc1 (stereo not given) + CC(Nc1ncnc2nc[nH]c12)c1cc2cccc(Cl)c2c(=O)n1-c1ccccc1 for me?
Output line: 0

Input line: Can you look up the reported call for CC1(C)CCC(CN2CCN(c3ccc(C(=O)NS(=O)(=O)c4ccc(NCC5CCOCC5)c([N+](=O)[O-])c4)c(Oc4cnc5[nH]ccc5c4)c3)CC2)=C(c2ccc(Cl)cc2)C1 + CC(Nc1ncnc2nc[nH]c12)c1cc2cccc(Cl)c2c(=O)n1-c1ccccc1 for me?
Output line: 1

Input line: Can you look up the reported call for C#Cc1c(F)ccc2cc(O)cc(-c3ncc4c(N5CC6CCC(C5)N6)nc(OCC56CCCN5CC(F)C6)nc4c3F)c12 (stereo not given) + CC(Nc1ncnc2nc[nH]c12)c1cc2cccc(Cl)c2c(=O)n1-c1ccccc1 for me?
Output line: 0

Lab note: next compound to report on.
Input line: Can you look up the reported call for CC(Cn1ccc(-c2ccc(C#N)c(Cl)c2)n1)NC(=O)c1cc(C(C)O)[nH]n1 (stereo not given) + COc1c(OCCCN2CCOCC2)ccc2c3n(c(=NC(=O)c4cnc(N)nc4)nc12)CCN3 for me?
Output line: 1
